All figures here come from the supplement of paper PMC6555819.

- Tested on: PPARg DBDmut:RXRa IVT, anti-PPARg (DBD mutation: PPARg1 K132A/R137A, NR concentration 270 nM, RXRa partner concentration 90 nM)
- Assay Summary: PBM binding z-score (relative to random genomic background probes); higher = stronger binding; sequences stand for … in GC…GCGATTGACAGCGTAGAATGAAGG
Can you tell me PBM binding z-score for the items I'm about to list?
Answers are plain numbers.

Examples from the recorded data:
[
  {
    "Macromolecule Sequence": "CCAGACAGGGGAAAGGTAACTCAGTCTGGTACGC",
    "Assay Result": -0.482
  },
  {
    "Macromolecule Sequence": "ACTATTAGTTGAGACGCGGGCAACCGATAGGTTG",
    "Assay Result": 0.481
  },
  {
    "Macromolecule Sequence": "TAGCCTAGGTCAGATCGGGCCAGTATCCGCTATA",
    "Assay Result": -0.474
  },
  {
    "Macromolecule Sequence": "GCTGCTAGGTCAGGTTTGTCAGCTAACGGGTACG",
    "Assay Result": -0.625
  },
  {
    "Macromolecule Sequence": "CAATCTAGGTCAAGAGGTCAAAGTCCGCTTCCCG",
    "Assay Result": 5.68
  }
]

// switching to the query sequence
Param item = `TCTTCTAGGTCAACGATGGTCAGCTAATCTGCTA` ; retrieve measured PBM binding z-score.
2.6

---

- Tested on: PPARg:RXRa 90nM:30nM, anti-RXR (NR concentration 90 nM, RXRa partner concentration 30 nM)
- Assay Summary: PBM binding z-score (relative to random genomic background probes); higher = stronger binding; sequences stand for … in GC…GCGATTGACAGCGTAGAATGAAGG
Can you tell me PBM binding z-score for the items I'm about to list?
One number for each entry.

Please supply PBM binding z-score for each of the following items, keeping them in order.
1. TATACAGGGTCAAAGGCCTGAGTACGAATGTCGA
2. CGAACTAGGTCATTTACAGGACAGTGAATAGTAA
3. ACTTACGGGTCAACGAGGTTGTAGCACGCGTATA
4. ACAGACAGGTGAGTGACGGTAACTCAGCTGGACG
5. TCATATAGGTAAAGATGAAAGTCGAACGATATGA
6. ATCTCGAGGTAAAAGTTCAGTGAATCCCGAGGAT

5.74
5.66
3.69
-0.388
3.02
5.67

---

- Test system: PPARg:RXRa 90nM:30nM, anti-RXR (NR concentration 90 nM, RXRa partner concentration 30 nM)
- Assay Summary: PBM binding z-score (relative to random genomic background probes); higher = stronger binding; sequences stand for … in GC…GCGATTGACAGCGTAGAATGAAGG
Recorded Metric: PBM binding z-score
Answers are plain numbers.

Please supply PBM binding z-score for each of the following items, keeping them in order.
1. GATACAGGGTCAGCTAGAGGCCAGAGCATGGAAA
2. CCTACTGGGCCACGAAAGGTCATTGAATCAGTGA
3. TGAATGAGGTTATACGATCAGGGAACGTTGCAAA
4. GTACCAAGGTGAATAGGTCGTTGAAGAGTAGGCG
5. CCATACGGGTCACTGACAGGTTATAGCATTTGGA
6. TTACCAAGGTGATCTGAGGTCGTTGATCCAACTC

1. 2.09
2. 4.03
3. 1.1
4. 1.17
5. 2.41
6. 0.651

Please supply PBM binding z-score for each of the following items, keeping them in order.
1. CGTCCAAGGTCAATGCCAGGTCAGTGAAAGCATT
2. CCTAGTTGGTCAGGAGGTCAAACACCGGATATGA
3. CCTAGCATGCCAATCTGGGTCACTCAAGGCTTGA
4. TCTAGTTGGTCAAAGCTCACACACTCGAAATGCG
5. AGAATGAGGTTATACGAAGATCAGGGAAGAAAGT
6. CGAACTAGCTCAGAACAGGACAGTGAAGGATGAT

1: 3.45; 2: 3.26; 3: 1.26; 4: 4.23; 5: 1.51; 6: -0.609

Please supply PBM binding z-score for each of the following items, keeping them in order.
1. GATACACGGTCAGCTAGAGGCCAGAGTATGGAAA
2. CCGACTGGGGCATAAGGTTACGATAAGCCAGCCC
3. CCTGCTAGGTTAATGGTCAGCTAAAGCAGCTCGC
4. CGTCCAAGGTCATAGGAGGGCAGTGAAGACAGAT
5. TGCATGAGGTTATAAGATCAGGGAACGTTGCAAA
6. TCTGCTAGGTCAGTTGGTGAGCTAACGAGCTGCC
7. TCGAGGAGGTTACCAATGGGGCATTCAGCTTTCT

1: -0.205; 2: 3.22; 3: 2.53; 4: 3.99; 5: 0.789; 6: 1.13; 7: 1.09

Please supply PBM binding z-score for each of the following items, keeping them in order.
1. CCTACTGGCCCAAAGGTCATTGATTCCAATGCTC
2. ACTTTCGGGTCAACGAGGTTATAGCACGCGTATA
3. ACAGACAGGTGATTAAGGTAACTCAGGCTATCAT
4. CAGCCTAGGTCAGGGCCAGTATGGGAGGAACGTT

1: 7.85; 2: 4.34; 3: 0.0739; 4: 0.0186

Please supply PBM binding z-score for each of the following items, keeping them in order.
1. GATACAGGGTCAAGGCCATAGTACGCGTATTGAT
2. ATATGTAGGTTAGCTGGGGTCATCCAGACTAGGC
3. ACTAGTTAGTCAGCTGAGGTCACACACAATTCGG

[4.43, 4.8, 1.49]

Please supply PBM binding z-score for each of the following items, keeping them in order.
1. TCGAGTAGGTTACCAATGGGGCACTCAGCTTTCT
2. GGAACGAGGGCCAGTTGATAGCAGAGTTTGATGG
3. AGTCAAAGTTCACTCGGTAACGTAAGATTCAGCT

1.15
-0.758
4.94

Please supply PBM binding z-score for each of the following items, keeping them in order.
1. GCGACTGGGCCAAAGCAGGTTACCATAAGGTTGG
2. AGAACGAGGGCACGCTGAGTTGATAGCTGAGTAG
3. CATACATGGTCAGCTAGGCCAGAGTAGGGACGGC
4. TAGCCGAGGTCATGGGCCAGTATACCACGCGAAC
5. CCTCTGAGGACAGAAGGTCAGAGCTGTCCGCTTT
6. TCTAGTTGGTCACGAAGGTCACACACGACGGGTA

1: 0.0774; 2: 1.06; 3: -0.753; 4: 5.67; 5: 0.582; 6: 4.25

Please supply PBM binding z-score for each of the following items, keeping them in order.
1. CCTCGGAGGACAGAAGGTCAGAGCTGTCCGCTTT
2. CAGCCGAGGTCAGGGCCAGTATAGGAGGAACGTT
3. TCTCGGAGGAGACGAAGGTCAGAGCTTTCCAGAG
4. TAGCCTAGGTCATTGGGTCAGTATAGTACGCATC
5. CCGACTGTGGCAAAGGTTACCATACTCAGTACGA
6. TATACAGGCTCAAAGGCCAGAGTACGAATGTCGA
7. AGCTCTAGGTAAGACTCAGTTCAGTGAAGAACGC
8. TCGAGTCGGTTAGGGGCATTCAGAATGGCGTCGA

-0.00592
3.28
1.51
3.99
8.43
1.4
-0.261
0.702

---

- System: RARa homodimer (NR concentration 270 nM)
- Assay Summary: PBM binding z-score (relative to random genomic background probes); higher = stronger binding; sequences stand for … in GC…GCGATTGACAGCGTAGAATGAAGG
PBM binding z-score of 0.05 or higher: Y. Under 0.05: N.

Solved entries:
[
  {
    "Macromolecule Sequence": "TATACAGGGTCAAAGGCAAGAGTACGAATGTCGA",
    "Cat": "Y"
  },
  {
    "Macromolecule Sequence": "CGTCCAAGGTCATAGGAGGTCAGTAAAGACAGAT",
    "Cat": "Y"
  },
  {
    "Macromolecule Sequence": "CGTCAAAGTGCAACTAAGGTAACGTAAAGCACGC",
    "Cat": "N"
  },
  {
    "Macromolecule Sequence": "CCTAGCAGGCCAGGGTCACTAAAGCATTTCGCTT",
    "Cat": "N"
  },
  {
    "Macromolecule Sequence": "GCTGCTAGGTCAACTGATGGTCGGCTAAAGCTCG",
    "Cat": "N"
  },
  {
    "Macromolecule Sequence": "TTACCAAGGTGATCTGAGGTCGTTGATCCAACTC",
    "Cat": "Y"
  }
]

Textbook exercise: given the entry `TCGAGTAGGTTAGGGGCATTTAGAATGGCGTCGA` , state whether its PBM binding z-score is greater than or equal to 0.05.
Y

Textbook exercise: given the entry `CGTCCAAGGTCAGAGATGTCAGTGAATGCCGAGT` , state whether its PBM binding z-score is greater than or equal to 0.05.
Y

Textbook exercise: given the entry `CCTAGCAGGCCAATCTCGGTCACTCAAGGCTTGA` , state whether its PBM binding z-score is greater than or equal to 0.05.
N

Textbook exercise: given the entry `ACTAGCAGGCCAAGTTGGGGTCACTCAAACAAAG` , state whether its PBM binding z-score is greater than or equal to 0.05.
N

Textbook exercise: given the entry `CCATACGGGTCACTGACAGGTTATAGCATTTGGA` , state whether its PBM binding z-score is greater than or equal to 0.05.
Y
